Target: Mu-type opioid receptor (Rattus norvegicus, UniProt P33535)
Sequence (P33535 whole entry): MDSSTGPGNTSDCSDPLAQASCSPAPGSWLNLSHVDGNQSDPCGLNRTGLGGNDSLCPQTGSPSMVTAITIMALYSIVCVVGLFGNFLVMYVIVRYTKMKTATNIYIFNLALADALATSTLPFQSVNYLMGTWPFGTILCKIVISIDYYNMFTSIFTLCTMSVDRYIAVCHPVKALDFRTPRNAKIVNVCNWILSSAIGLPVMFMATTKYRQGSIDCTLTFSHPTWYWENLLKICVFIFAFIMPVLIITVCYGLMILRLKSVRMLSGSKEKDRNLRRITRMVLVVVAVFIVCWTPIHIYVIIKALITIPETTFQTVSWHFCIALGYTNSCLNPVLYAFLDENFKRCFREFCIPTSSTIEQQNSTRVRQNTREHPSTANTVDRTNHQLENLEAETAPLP
Positions of bridges follow the written chain, without caps; N, C: chain ends. Non-standard residues stand in square brackets, D forms with d. Residues, ends and D or L forms follow the SMILES beside them. dTic = O=C(O)[C@H]1Cc2ccccc2CN1; Pen = CC(C)(S)[C@H](N)C(=O)O
measured-quantity: pIC50
The scale used: pIC50 is minus the common logarithm of the concentration in molar units.

Record C[C@@H](O)[C@H](NC(=O)[C@H]1NC(=O)[C@H]([C@@H](C)O)NC(=O)[C@H](CCCN=C(N)N)NC(=O)[C@@H](Cc2c[nH]c3ccccc23)NC(=O)[C@H](Cc2ccc(O)cc2)NC(=O)[C@@H](NC(=O)[C@H]2Cc3ccccc3CN2)CSSC1(C)C)C(N)=O (H-[dTic]CY[dW]RT[Pen]T-NH2; disulfide 2-7) . Reported pIC50: 8.92

Record C[C@@H](O)[C@@H]1NC(=O)[C@H](CCCCN)NC(=O)C(Cc2c[nH]c3ccccc23)NC(=O)[C@H](Cc2ccc(O)cc2)NC(=O)[C@@H](NC(=O)[C@H](N)Cc2ccccc2)CSSC(C)(C)[C@@H](C(=O)N[C@@H](CC(N)=O)C(N)=O)NC1=O (stereo in doubt) . Reported pIC50: 6.89

====

Biological target: Mu-type opioid receptor (Rattus norvegicus, UniProt P33535)
measured-quantity: pIC50
The scale used: pIC50 is minus the common logarithm of the concentration in molar units.

Record CN[C@H](Cc1ccccc1)C(=O)N[C@H]1CSSC(C)(C)[C@@H](C(=O)N[C@H](C(N)=O)[C@@H](C)O)NC(=O)[C@H]([C@@H](C)O)NC(=O)[C@H](CCCN)NC(=O)C(Cc2c[nH]c3ccccc23)NC(=O)[C@H](Cc2ccc(O)cc2)NC1=O (stereo in doubt) . Reported pIC50: 6.55

Record C[C@@H](O)[C@H](NC(=O)[C@H]1NC(=O)[C@H]([C@@H](C)O)NC(=O)[C@H](CCCN)NC(=O)C(Cc2c[nH]c3ccccc23)NC(=O)[C@@H](Cc2ccc(O)cc2)NC(=O)[C@@H](NC(=O)[C@H]2Cc3ccccc3CN2C(=O)CN)CSSC1(C)C)C(N)=O (stereo in doubt) . Reported pIC50: 6.56

Record C[C@@H](O)[C@@H]1NC(=O)[C@H](CCCCN)NC(=O)C(Cc2c[nH]c3ccccc23)NC(=O)[C@H](Cc2ccc(O)cc2)NC(=O)[C@@H](NC(=O)[C@H](N)Cc2ccccc2)CSSC(C)(C)[C@@H](C(=O)N[C@@H](CC(=O)O)C(N)=O)NC1=O (stereo in doubt) . Reported pIC50: 5.46

Record C[C@@H](O)[C@@H]1NC(=O)[C@H](CCCCN)NC(=O)C(Cc2c[nH]c3ccccc23)NC(=O)[C@H](Cc2ccc(O)cc2)NC(=O)[C@@H](NC(=O)[C@H]2Cc3ccccc3CN2)CSSC(C)(C)[C@@H](C(=O)N[C@@H](CO)C(N)=O)NC1=O (stereo in doubt) . Reported pIC50: 8.11

====

Experiment: Ratio of selective binding affinity of mu receptor to that of somatostatin receptor
Positions of bridges follow the written chain, without caps; N, C: chain ends. Non-standard residues stand in square brackets, D forms with d. Residues, ends and D or L forms follow the SMILES beside them. Tic = O=C(O)[C@@H]1Cc2ccccc2CN1; Pen = CC(C)(S)[C@H](N)C(=O)O
Please assign Condition not met whenever Ratio is at or above 200, and Condition met whenever it is below.

Req: Dear reviewer, please state whether C[C@@H](O)[C@H](NC(=O)[C@H]1NC(=O)[C@H]([C@@H](C)O)NC(=O)[C@H](CCCCN)NC(=O)C(Cc2c[nH]c3ccccc23)NC(=O)[C@H](Cc2ccc(O)cc2)NC(=O)[C@@H](NC(=O)C(N)Cc2c[nH]c3ccccc23)CSSC1(C)C)C(N)=O (stereo in doubt) has Ratio strictly beneath 200.
Resp: Condition not met

Req: Dear reviewer, please state whether CN[C@H](Cc1ccccc1)C(=O)N[C@H]1CSSC(C)(C)[C@@H](C(=O)N[C@H](C(N)=O)[C@@H](C)O)NC(=O)[C@H]([C@@H](C)O)NC(=O)[C@H](CCCN)NC(=O)C(Cc2c[nH]c3ccccc23)NC(=O)[C@H](Cc2ccc(O)cc2)NC1=O (stereo in doubt) has Ratio strictly beneath 200.
Resp: Condition met

Req: Dear reviewer, please state whether "C[C@@H](O)[C@H](NC(=O)[C@H]1NC(=O)[C@H]([C@@H](C)O)NC(=O)[C@H](CCCNC(=N)N)NC(=O)[C@@H](Cc2c[nH]c3ccccc23)NC(=O)[C@H](Cc2ccc(O)cc2)NC(=O)[C@@H](NC(=O)[C@H](N)Cc2ccccc2)CSSC1(C)C)C(N)=O" has Ratio strictly beneath 200.
Resp: Condition not met

Req: Dear reviewer, please state whether C[C@@H](O)[C@@H]1NC(=O)[C@H](CCCCN)NC(=O)C(Cc2c[nH]c3ccccc23)NC(=O)[C@H](Cc2ccc(O)cc2)NC(=O)[C@@H](NC(=O)[C@H](N)Cc2ccccc2)CSSC(C)(C)[C@@H](C(N)=O)NC1=O (stereo in doubt) has Ratio strictly beneath 200.
Resp: Condition met

Req: Dear reviewer, please state whether C[C@@H](O)[C@H](NC(=O)[C@H]1NC(=O)[C@H]([C@@H](C)O)NC(=O)[C@H](CCCCN)NC(=O)C(Cc2c[nH]c3ccccc23)NC(=O)[C@@H](Cc2ccc(O)cc2)NC(=O)[C@@H](NC(=O)[C@H]2Cc3ccccc3CN2)CSSC1(C)C)C(N)=O (stereo in doubt) has Ratio strictly beneath 200.
Resp: Condition not met

Req: Dear reviewer, please state whether C[C@@H](O)[C@@H]1NC(=O)[C@H](CCCCN)NC(=O)C(Cc2c[nH]c3ccccc23)NC(=O)[C@H](Cc2ccc(O)cc2)NC(=O)[C@@H](NC(=O)[C@H]2Cc3ccccc3CN2)CSSC(C)(C)[C@@H](C(=O)N[C@@H](CO)C(N)=O)NC1=O (stereo in doubt) has Ratio strictly beneath 200.
Resp: Condition met

Req: Dear reviewer, please state whether C[C@@H](O)[C@@H]1NC(=O)[C@H](CCCCN)NC(=O)C(Cc2c[nH]c3ccccc23)NC(=O)[C@H](Cc2ccc(O)cc2)NC(=O)[C@@H](NC(=O)[C@H](N)Cc2ccccc2)CSSC(C)(C)[C@@H](C(=O)N[C@@H](CO)C(N)=O)NC1=O (stereo in doubt) has Ratio strictly beneath 200.
Resp: Condition met

Req: Dear reviewer, please state whether C[C@@H](O)[C@@H]1NC(=O)[C@H](CCCN)NC(=O)C(Cc2c[nH]c3ccccc23)NC(=O)[C@H](Cc2ccc(O)cc2)NC(=O)[C@@H](NC(=O)[C@H](N)Cc2ccccc2)CSSC(C)(C)[C@@H](C(N)=O)NC1=O (stereo in doubt) has Ratio strictly beneath 200.
Resp: Condition not met

Req: Dear reviewer, please state whether C[C@@H](O)[C@H](NC(=O)[C@H]1NC(=O)[C@H]([C@@H](C)O)NC(=O)[C@H](CCCN=C(N)N)NC(=O)[C@H](Cc2c[nH]c3ccccc23)NC(=O)[C@H](Cc2ccc(O)cc2)NC(=O)[C@@H](NC(=O)[C@@H]2Cc3ccccc3CN2)CSSC1(C)C)C(N)=O (H-[Tic]CYWRT[Pen]T-NH2; disulfide 2-7) has Ratio strictly beneath 200.
Resp: Condition not met

Req: Dear reviewer, please state whether C[C@@H](O)[C@@H]1NC(=O)[C@H](CCCCN)NC(=O)C(Cc2c[nH]c3ccccc23)NC(=O)[C@H](Cc2ccc(O)cc2)NC(=O)[C@@H](NC(=O)[C@H](N)Cc2ccccc2)CSSC(C)(C)[C@@H](C(=O)N[C@@H](CC(=O)O)C(N)=O)NC1=O (stereo in doubt) has Ratio strictly beneath 200.
Resp: Condition met

====

Please provide measured Ratio for the entries that follow.
Assay: Ratio of selective binding affinity of mu receptor to that of somatostatin receptor

Record C[C@@H](O)[C@H](NC(=O)[C@H]1NC(=O)[C@H](CCCCN)NC(=O)C(Cc2c[nH]c3ccccc23)NC(=O)[C@@H](Cc2ccc(O)cc2)NC(=O)[C@@H](NC(=O)[C@H]2Cc3ccccc3CN2)CSSC1(C)C)C(N)=O (stereo in doubt) . Reported Ratio: 1.5

Record "C[C@@H](O)[C@H](NC(=O)[C@H]1NC(=O)[C@H]([C@@H](C)O)NC(=O)[C@H](CCCCN)NC(=O)[C@H](Cc2c[nH]c3ccccc23)NC(=O)[C@H](Cc2ccc(O)cc2)NC(=O)[C@@H](NC(=O)[C@@H](N)Cc2ccccc2)CSSC1(C)C)C(N)=O" . Reported Ratio: 395

====

Target: Delta-type opioid receptor (Rattus norvegicus)
Sequence (P33533 whole entry): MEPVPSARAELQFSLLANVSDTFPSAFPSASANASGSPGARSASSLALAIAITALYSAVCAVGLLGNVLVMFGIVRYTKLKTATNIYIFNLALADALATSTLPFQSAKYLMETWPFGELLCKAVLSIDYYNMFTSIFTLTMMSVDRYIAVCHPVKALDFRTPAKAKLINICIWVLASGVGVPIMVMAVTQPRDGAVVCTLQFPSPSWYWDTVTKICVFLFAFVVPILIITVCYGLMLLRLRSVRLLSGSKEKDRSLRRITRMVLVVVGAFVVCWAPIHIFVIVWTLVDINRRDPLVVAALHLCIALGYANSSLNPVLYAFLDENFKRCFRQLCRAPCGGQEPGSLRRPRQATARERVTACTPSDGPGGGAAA
Experiment: Binding affinity in competition with [3H]- DPDPE in Opioid receptor delta 1 binding to rat brain membrane
measured-quantity: pIC50
The scale used: pIC50 is minus the common logarithm of the concentration in molar units.

Record C[C@@H](O)[C@H](NC(=O)[C@H]1NC(=O)[C@H]([C@@H](C)O)NC(=O)[C@H](CCCN)NC(=O)C(Cc2c[nH]c3ccccc23)NC(=O)[C@@H](Cc2ccc(O)cc2)NC(=O)[C@@H](NC(=O)[C@H]2Cc3ccccc3CN2C(=O)CN)CSSC1(C)C)C(N)=O (stereo in doubt) . Reported pIC50: 5.27
